target: CENP-ΔQU complex (CENP-Q^1–294 and CENP-U^30–266) (S. cerevisiae) (UniProt P53298); test: ITC; CENP-A^END peptides (0.87 to 2.18 mM) titrated into CENP-QU (66 to 180 μM) in the cell; 20°C; 20 mM Hepes pH 7.5, 100 mM NaCl, 1 mM TCEP; single-site binding model; triplicate

{"columns": ["binder", "Kd"],
 "data": [
  ["Ac-AGDQQSINDRALSLLQRTRATKNW-NH2 [CENP-A^END-2 peptide]", "1000 nM"],
  ["Ac-AGDQQSINDRALSLLQRTRATKNLFPRREERRRW-NH2 [CENP-A^END-3 peptide]", "720 nM"],
  ["Ac-DASINDRALSLLQRTRATDAW-NH2 [CENP-A^END-1 peptide]", "11500 nM"]
]}
